# Protocol Description: reversal of MRP1-mediated doxorubicin resistance, pilot screen, H69AR cells, doxorubicin co-treatment (AID 601)
# Condition Details: H69AR cells, CellTiter-Glo, 72 h; compound alone cytotoxicity; at 10 µM
Attribute Measured: viability

Take a look at these entries with their results.
- O=C(c1ccc(Cl)c(Cl)c1)N1CCOCC1: 92.3%
- COC(=O)c1cccc(NC(=O)Cc2coc3cc(OC)ccc23)c1: 94.2%
- CCCn1c(=N)n(CC(=O)c2cccs2)c2ccccc21: 91%
- CCc1cccc(NS(=O)(=O)c2c(C)n[nH]c2C)c1: 107%

(Q) Any idea what its viability is? The compound is CN(C)c1ccc(/C=C/c2ccncc2)cc1
(A) 90.5%

(Q) Next: N#Cc1nc(COc2ccc(Br)cc2)oc1N1CCCC1
(A) 87.5%

(Q) Next: CC(=O)c1cccc(NC(=O)N2CCCc3ccccc32)c1
(A) 93.6%

(Q) Next: Cc1oc(-c2ccccc2)cc1C(N)=O
(A) 100%

(Q) Next: CC(=O)Oc1ccc(-c2ccc(C(=O)O)cc2)cc1
(A) 107%

(Q) Next: Cc1noc(C)c1S(=O)(=O)N1CCCC(C(=O)NCCc2ccc(Cl)cc2)C1 (configuration not stated)
(A) 97.1%

(Q) Next: O=C(Nc1cccnc1)c1noc2c1CCCCC2
(A) 87.3%

(Q) Next: COc1ccccc1C(=O)N1CCN(C(=O)c2ccncc2)CC1
(A) 103%

* * *

# Target Desc: Receptor tyrosine-protein kinase erbB-2 (Homo sapiens) (UniProt P04626)
# Sequence (P04626 whole entry, looked up): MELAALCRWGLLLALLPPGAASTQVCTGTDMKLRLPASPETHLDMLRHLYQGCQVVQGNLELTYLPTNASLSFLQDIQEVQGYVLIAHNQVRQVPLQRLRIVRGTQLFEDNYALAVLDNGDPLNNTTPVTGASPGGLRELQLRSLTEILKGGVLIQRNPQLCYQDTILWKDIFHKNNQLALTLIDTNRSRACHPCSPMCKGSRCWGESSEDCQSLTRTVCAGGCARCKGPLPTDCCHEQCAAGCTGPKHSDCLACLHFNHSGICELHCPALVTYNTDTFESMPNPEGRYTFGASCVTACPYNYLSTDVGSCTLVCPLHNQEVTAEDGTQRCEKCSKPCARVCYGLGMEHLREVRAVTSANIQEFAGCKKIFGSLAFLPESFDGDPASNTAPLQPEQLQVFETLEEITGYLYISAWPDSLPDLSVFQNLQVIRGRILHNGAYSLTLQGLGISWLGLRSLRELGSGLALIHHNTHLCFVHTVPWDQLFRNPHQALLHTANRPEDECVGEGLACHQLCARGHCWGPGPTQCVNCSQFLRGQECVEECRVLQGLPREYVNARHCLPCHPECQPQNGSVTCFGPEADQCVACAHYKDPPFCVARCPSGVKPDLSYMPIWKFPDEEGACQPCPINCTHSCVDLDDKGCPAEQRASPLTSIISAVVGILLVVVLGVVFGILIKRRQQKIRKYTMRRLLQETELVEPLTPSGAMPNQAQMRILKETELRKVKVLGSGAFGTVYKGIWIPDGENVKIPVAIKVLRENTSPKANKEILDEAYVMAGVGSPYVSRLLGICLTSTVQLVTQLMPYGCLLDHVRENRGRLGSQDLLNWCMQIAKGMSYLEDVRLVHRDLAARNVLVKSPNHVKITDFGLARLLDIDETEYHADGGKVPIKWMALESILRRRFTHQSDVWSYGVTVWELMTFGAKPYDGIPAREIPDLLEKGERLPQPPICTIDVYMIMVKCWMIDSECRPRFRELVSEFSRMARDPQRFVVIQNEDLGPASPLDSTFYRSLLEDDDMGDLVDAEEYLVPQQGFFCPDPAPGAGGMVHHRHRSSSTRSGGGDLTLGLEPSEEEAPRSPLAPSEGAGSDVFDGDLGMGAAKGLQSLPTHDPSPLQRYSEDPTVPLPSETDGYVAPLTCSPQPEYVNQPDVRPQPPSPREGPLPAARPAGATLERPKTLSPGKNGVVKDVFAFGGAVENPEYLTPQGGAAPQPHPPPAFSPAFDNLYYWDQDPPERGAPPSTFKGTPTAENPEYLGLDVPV
# Protocol Description: reducers of endogenous Her2 protein level, primary screen, SKBR3 breast tumor cells, AlphaScreen, ATP viability (AID 461);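 also: lower value means less Her2 protein in the cells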
# Condition Details: 18-24 h, at 10 µM, stronger effect = lower value
Attribute Measured: Her2 level (%)
Just the number please, in %, no unit attached.

Take a look at these entries with their results.
• CCOC(=O)C1CCN(c2c(N3CCCC(C(=O)OCC)C3)c(=O)c2=O)CC1 (centres undefined) = 119
• O=C(OCc1ccccc1F)c1ccc2c(c1)OCCO2 = 86
• CC(=O)N1CCc2cc(S(=O)(=O)NC(C(=O)NCc3ccccc3)C(C)C)ccc21 (centres undefined) = 95.5
• CC(C)NC(=O)CSCc1ccccc1Cl = 95
• Cc1cccc(NC2SC(=O)N(c3ccccc3)C2=O)c1 (centres undefined) = 81
• CCOC(=O)c1cccc(NC(=O)CS(=O)(=O)Cc2nc(-c3cccc(OC)c3)oc2C)c1 = 79
• COc1ccc(Cc2nc(-c3ccc(NC(=O)c4cccnc4)cc3)no2)cc1 = 84.5
• CC1(C)CC(=O)C(C#N)=C(NCCCO)C1 = 98.5

(Q) Any idea what its Her2 level is? The molecule is O=C(COC(=O)c1ccccc1Oc1ccccc1)NC1CCS(=O)(=O)C1 (centres undefined)
(A) 104

(Q) Next: CCN1C(=O)Cc2cc(S(=O)(=O)N3CCOCC3)ccc21
(A) 110

(Q) Next: NC(=O)c1nsnc1-c1ccccc1O
(A) 124

(Q) Next: O=S1(=O)CC(N2CCCCC2)C(N2CCCCC2)C1 (centres undefined)
(A) 91.5

(Q) Next: O=C(Nc1ccc(N2CCOCC2)cc1)c1cc2ccccc2o1
(A) 117

(Q) Next: C/C(=N\O)C(=O)NCc1ccccn1
(A) 134

(Q) Next: CCCNC(=O)c1ccccc1C(=O)NCCC
(A) 88.5

(Q) Next: CC1=C(C(=O)NC2CCCC(C)C2C)C2(CCCCC2)OC1=O (centres undefined)
(A) 100

(Q) Next: CCn1c(SCC(=O)N2CCCc3ccccc32)nnc1-c1cccs1
(A) 72.5

(Q) Next: CC(C)c1ccc(S(=O)(=O)N2CCN(C(=O)c3cccc(F)c3)CC2)cc1
(A) 104

(Q) Next: O=c1c2ccccc2cnn1-c1nc2ccccc2s1
(A) 73

(Q) Next: COc1cc(OC)nc(NC(=O)CSc2nc3ccccc3o2)n1
(A) 82.5

(Q) Next: COC(=O)C(NC(C)=O)(Nc1ccccn1)C(F)(F)F (centres undefined)
(A) 78

(Q) Next: CC(=O)N1CCN(Cc2ccc(Br)s2)CC1
(A) 88

(Q) Next: CCC(Sc1ccc(C(=O)O)cc1)C(=O)O (centres undefined)
(A) 96

(Q) Next: COc1ccc(CN(CC(=O)NCC2CCCO2)C(=O)CNS(=O)(=O)c2ccc(C)cc2)cc1 (centres undefined)
(A) 102
